Source listed as the supplement of paper PMC11908140.

Overview of reported 8OG:A repair function score across a group of variants:
B1: library; numbered along this chain (parent)
chain: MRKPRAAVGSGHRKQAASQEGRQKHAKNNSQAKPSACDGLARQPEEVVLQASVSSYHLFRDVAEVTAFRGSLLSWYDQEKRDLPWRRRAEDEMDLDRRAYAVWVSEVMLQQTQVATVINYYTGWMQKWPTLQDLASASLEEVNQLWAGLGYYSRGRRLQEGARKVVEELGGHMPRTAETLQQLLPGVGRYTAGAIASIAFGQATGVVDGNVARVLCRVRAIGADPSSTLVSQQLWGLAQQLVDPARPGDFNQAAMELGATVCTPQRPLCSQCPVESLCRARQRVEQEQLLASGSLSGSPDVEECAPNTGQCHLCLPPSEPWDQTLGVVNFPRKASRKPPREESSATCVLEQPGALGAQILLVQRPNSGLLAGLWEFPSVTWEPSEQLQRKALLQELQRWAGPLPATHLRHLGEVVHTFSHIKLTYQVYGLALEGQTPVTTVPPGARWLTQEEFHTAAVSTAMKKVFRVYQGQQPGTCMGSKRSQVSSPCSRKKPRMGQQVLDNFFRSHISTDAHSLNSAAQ

Variants of: B1
Assay: 8OG:A repair function score (normalized; synonymous = 0, nonsense = -1) (normalized log-likelihood score); higher = more repair activity (WT-like);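 note: cells sorted at 72 h after reporter transfection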
Details: with 8OG:A DNA repair reporter (GFP) in HEK-293 MUTYH KO cells
Just the number, please.

Determine its reported 8OG:A repair function score: G209W
-0.876

Determine its reported 8OG:A repair function score: G429S
-0.131

Determine its reported 8OG:A repair function score: P494K
-0.0663
